Target: hGPR40 (Homo sapiens, UniProt O14842)
Construct: expressed in transfected cells; host or cells: CHO cells
Sequence (O14842 whole entry): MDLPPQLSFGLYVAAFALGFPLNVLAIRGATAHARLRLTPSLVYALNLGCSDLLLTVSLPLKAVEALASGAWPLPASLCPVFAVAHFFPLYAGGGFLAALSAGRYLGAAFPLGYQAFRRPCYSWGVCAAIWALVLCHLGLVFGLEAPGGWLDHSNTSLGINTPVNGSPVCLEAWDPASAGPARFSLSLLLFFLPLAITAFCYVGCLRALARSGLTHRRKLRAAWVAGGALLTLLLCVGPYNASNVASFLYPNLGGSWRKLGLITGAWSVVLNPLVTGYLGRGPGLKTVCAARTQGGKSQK
Assay: Calcium influx assay on hGPR40-expressing CHO cells
Format: cell-based
Details: hGPR40-expressing CHO cells, calcium influx, mean of three determinations; read-out: GPR40 (EC50)
Reported pEC50 values for a set of compounds
Note: pEC50 values are expressed as the negative base-10 logarithm of concentration in M.

Some entries whose results are on file:
COMPOUND | TARGET_ENTITY | pEC50
Cc1ccc2c(c1)CCCN2C(=O)COc1ccc(OCC(=O)O)c(C)c1 [Compound 11g] | hGPR40 (Homo sapiens, UniProt O14842) | 4.06
Cc1ccc2c(c1)CCCN2C(=O)COc1ccc(C(C)CC(=O)O)cc1 (stereo not shown) [Compound 11b] | hGPR40 (Homo sapiens, UniProt O14842) | 4.08
Cc1ccc(-c2ccc(F)cc2COc2ccc(OCC(=O)O)c(C)c2)cc1 | hGPR40 (Homo sapiens, UniProt O14842) | 4.23

Continue with the next compound.
In: Answer with the recorded pEC50 of Cc1ccc(-c2ccc(F)cc2COc2ccc(C(C)CC(=O)O)cc2)cc1 (stereo not shown) only.
Out: 4.14

---

Target: human GPR120 (Homo sapiens)
Sequence (Q5NUL3 whole entry): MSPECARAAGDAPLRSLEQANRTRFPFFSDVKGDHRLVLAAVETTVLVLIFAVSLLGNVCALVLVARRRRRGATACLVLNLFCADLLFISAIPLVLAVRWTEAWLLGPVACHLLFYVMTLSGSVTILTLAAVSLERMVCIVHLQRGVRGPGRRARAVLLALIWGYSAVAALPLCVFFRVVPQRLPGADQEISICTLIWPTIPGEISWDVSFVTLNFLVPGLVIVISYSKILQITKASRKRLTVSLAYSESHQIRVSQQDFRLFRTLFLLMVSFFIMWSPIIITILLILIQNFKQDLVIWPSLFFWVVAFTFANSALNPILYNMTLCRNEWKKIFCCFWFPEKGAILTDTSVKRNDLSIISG
Assay: Ca2+ influx assay in CHO cells stably expressing human GPR120
Details: CHO cells expressing human GPR120, Ca2+ signal, mean of three determinations
OBSERVED_PROPERTY: EC50 (nM)
Supply the numeric figure in nM, leaving out any unit text.

COMPOUND | VALUE_MEASURED
Cc1ccc(-c2ccc(F)cc2COc2ccc(OCC(=O)O)c(C)c2)cc1 [Compound 6f] | 72.7
Cc1ccc2c(c1)CCCN2C(=O)COc1ccc(OCC(=O)O)c(C)c1 [Compound 11g] | 83.4
Cc1ccc(-c2ccc(F)cc2COc2ccc(CCC(=O)O)c(F)c2)cc1 [Compound 4f] | 110

In: Provide EC50, tested on human GPR120 (Homo sapiens), for Cc1cc(OCC(=O)N2CCCc3ccccc32)ccc1OCC(=O)O [Compound 11e] .
Out: 255

In: Provide EC50, tested on human GPR120 (Homo sapiens), for Cc1cc(OCC(=O)N2CCCc3cc(F)ccc32)ccc1OCC(=O)O [Compound 11f] .
Out: 204

In: Provide EC50, tested on human GPR120 (Homo sapiens), for Cc1ccc(-c2ccc(F)cc2COc2ccc(OCC(=O)O)c(F)c2)cc1 [Compound 7f] .
Out: 106

---

Reported melting point values for a set of molecules

In: Answer with the recorded melting point of `Cc1ccc(-c2ccc(F)cc2COc2ccc(OCC(=O)O)c(C)c2)cc1` only.
Out: 115 to 116 °C

In: Answer with the recorded melting point of `Cc1ccc(-c2ccc(F)cc2COc2ccc(CCC(=O)O)c(F)c2)cc1` only.
Out: 101 to 102 °C

In: Answer with the recorded melting point of Cc1ccc(-c2ccc(F)cc2COc2ccc(C(C)CC(=O)O)cc2)cc1 (stereo not drawn) only.
Out: 100 to 101 °C

In: Answer with the recorded melting point of `Cc1ccc(-c2ccc(F)cc2COc2ccc(CCC(=O)O)c(C)c2)cc1` only.
Out: 116 to 117 °C

In: Answer with the recorded melting point of Cc1ccc(-c2ccc(F)cc2COc2ccc(CC(C)C(=O)O)cc2)cc1 (stereo not drawn) only.
Out: 103 to 104 °C

In: Answer with the recorded melting point of COc1ccc2c(c1)CCCN2C(=O)COc1ccc(C(C)CC(=O)O)cc1 (stereo not drawn) [Compound 11c] only.
Out: 141 to 142 °C

In: Answer with the recorded melting point of `Cc1ccc(-c2ccc(F)cc2COc2ccc(OCC(=O)O)c(F)c2)cc1` only.
Out: 109 to 110 °C

In: Answer with the recorded melting point of Cc1ccc2c(c1)CCCN2C(=O)COc1ccc(C(C)CC(=O)O)cc1 (stereo not drawn) [Compound 11b] only.
Out: 115 to 116 °C

In: Answer with the recorded melting point of `Cc1ccc(-c2ccc(F)cc2COc2ccc(OCC(=O)O)cc2)cc1` only.
Out: 119 to 120 °C
